tested on: TK-10 renal; test: NCI tumour cell line growth inhibition, 48 h
Can you tell me TGI for the items I'm about to list?

Exercise: Hi! What's the reported TGI for CC(C)C(=O)Cc1ccc2ccccc2n1 on TK-10 renal?
Key: > 100 µM

Exercise: Give the reported TGI for COC(=O)[C@@H]1Cc2ccc(OC)c(c2)OCCC(=O)N1 (system: TK-10 renal).
Key: > 100 µM

Exercise: Provide the documented TGI with TK-10 renal as the system for COc1ccc([C@@H]2[C@@H](Oc3ccccc3)C(=O)N2c2cc(OC)c(OC)c(OC)c2)cc1F
Key: > 100 µM

Exercise: For TK-10 renal, provide TGI of N#CC1=C(S)N(C2OC(CO)C(O)C(O)C2O)C(c2ccccc2)=CC1c1ccco1 (stereo not drawn) please.
Key: > 100 µM

Exercise: Hi! What's the reported TGI for O=C(Nc1ccc(Cl)cc1Cl)C1C(=O)OC2(CCCCC2)OC1=O on TK-10 renal?
Key: > 100 µM

Exercise: // fetch TK-10 renal TGI for CCOC(=O)c1c(C)n(-c2ccc(C)cc2)c(=O)c2ccccc2c(=O)c2c(=O)ccc(=O)c1=2
Key: 29.4 µM

Exercise: # query: TGI | item COC(=O)C1CC(=O)O[C@H]1c1ccc(OC)c(OC)c1 (stereo partly drawn) | system: TK-10 renal
Key: > 100 µM

Exercise: Find the measured TGI: item COc1ccc(/C=C2\C[C@H]3[C@@H]4CC=C5C[C@@H](O)CC[C@]5(C)[C@H]4CC[C@]3(C)\C2=N\O)cc1 , target or system TK-10 renal.
Key: > 100 µM

Exercise: Lab note: need TGI for COC(=O)c1c(C)cccc1C1CN=NC12Cc1cc(C)c(C)cc1C2=O (stereo not drawn) on TK-10 renal, anyone have it?
Key: > 100 µM

Exercise: Notebook entry, TK-10 renal assay: TGI of O=C(CC1(O)C(=O)Nc2c(Cl)cc(Cl)cc21)c1cccc([N+](=O)[O-])c1 (stereo not drawn) = ?
Key: > 100 µM

Exercise: Give TK-10 renal TGI for Cn1cc(-c2ccc3c(c2)ncn3-c2cc(NS(=O)(=O)C3CC3)cc(-c3ccc(F)cc3F)c2)cn1
Key: 72.7 µM

Exercise: Lab request: please report TGI under test system TK-10 renal for N/C(CCSCCSCC/C(N)=N\O)=N\O
Key: > 100 µM

Exercise: I'm curious: which TGI was measured for COC(=O)C(=O)C(C(=O)C(=O)Nc1cccc(OC)c1)c1nc2ccc(Cl)cc2[nH]c1=O (stereo not drawn) tested on TK-10 renal?
Key: > 100 µM

Exercise: API: value(readout= TGI, system= TK-10 renal, query= O=C1Nc2ccc(Cl)cc2/C1=N/c1nc(-c2ccc(Cl)cc2)cs1 )
Key: 6.13 µM

Exercise: Any idea what TGI came out for C(=NC12CC3CC(CC(C3)C1)C2)C1CCCCC1 on TK-10 renal?
Key: > 100 µM

Exercise: What measured TGI is associated with ON1CCc2c([nH]c3ccccc23)C1c1ccc(Cl)cc1 (stereo not drawn) on TK-10 renal?
Key: > 100 µM

Exercise: Notebook: pull reported TGI for TK-10 renal, entry O=C1[C@H](Cc2ccc(O)cc2)N2C(=O)CCN(C(=O)NCc3ccccc3)[C@H]2CN1Cc1cccc2ccccc12
Key: 30.7 µM

Exercise: Given the entry CCOC(=O)c1nc2ccc(C(F)(F)F)cc2nc1Oc1ccc(OC)cc1 , what TGI was observed with TK-10 renal?
Key: > 100 µM

Exercise: Kindly state the measured TGI obtained for C=CCN(CC=C)Cc1c[nH]c2ccccc12 with TK-10 renal.
Key: 38.7 µM

Exercise: Any idea what TGI came out for CCCCCCCCCCCCCCCCOP(=O)([O-])OCC[N+](C)(C)C1CC(C)(C)N(O)C(C)(C)C1 on TK-10 renal?
Key: > 100 µM

Exercise: TGI of CCN(CC)/[N+]([O-])=N/OS(=O)(=O)N(C)C on TK-10 renal?
Key: > 100 µM

Exercise: Any idea what TGI came out for Cc1ccccc1NC(=O)CC(=O)NNCC(=O)Nc1nnc(-c2ccccc2)s1 on TK-10 renal?
Key: > 100 µM

Exercise: Enter reported TGI observed with TK-10 renal for CC(C)(CCCCC(C)(C)NC1=NCCO1)NC1=NCCO1
Key: > 10 µM

Exercise: # query: TGI | item N#C[Se]CCN1C(=O)c2ccccc2C1=O | system: TK-10 renal
Key: 6.3 µM

Exercise: Quick check: TGI on TK-10 renal, item COc1cc(Nc2nc3cc(C)ccc3nc2-c2ccccc2)cc(OC)c1OC ?
Key: > 100 µM

Exercise: What measured TGI is associated with CN(CC(=O)Nc1ccccc1C(=O)O)c1ccccc1 on TK-10 renal?
Key: > 100 µM

Exercise: Value wanted: TGI (TK-10 renal) of entry O=S(=O)(O)C(c1ccccc1)C(O)c1ccccc1 (stereo not drawn)
Key: > 100 µM

Exercise: Item CC(=O)Nc1nc2c(=O)c3ccccc3sc2s1 with TK-10 renal - TGI?
Key: > 100 µM

Exercise: Item: COc1ccc(-c2c(Nc3ccccn3)nc3c(C4=CCCCC4)c(-c4ccccc4)[nH]n3c2=O)cc1 Test system: TK-10 renal Read-out: TGI Value: ?
Key: 19.1 µM

Exercise: Enter reported TGI observed with TK-10 renal for O=C1NC(=O)N(S(=O)(=O)c2cc(C(=O)Nc3ccc(Cl)cc3)c(Cl)cc2S)S(=O)(=O)N1
Key: 45.5 µM

Exercise: // fetch TK-10 renal TGI for CS(=O)(=O)CCC1CCC(=O)O1 (stereo not drawn)
Key: > 100 µM

Exercise: Test system TK-10 renal; read-out TGI; what value for O=c1c2cc(Br)ccc2nc(CNc2ccccc2)n1-c1ccccc1 ?
Key: 45.5 µM

Exercise: // fetch TK-10 renal TGI for c1cc(OCCCCCOc2cccc(-c3nc4ccccc4[nH]3)c2)cc(-c2nc3ccccc3[nH]2)c1
Key: > 100 µM
